// data source = ChEMBL document CHEMBL1909046

Target: Epidermal growth factor receptor (Homo sapiens, UniProt P00533)
Sequence (P00533 whole entry): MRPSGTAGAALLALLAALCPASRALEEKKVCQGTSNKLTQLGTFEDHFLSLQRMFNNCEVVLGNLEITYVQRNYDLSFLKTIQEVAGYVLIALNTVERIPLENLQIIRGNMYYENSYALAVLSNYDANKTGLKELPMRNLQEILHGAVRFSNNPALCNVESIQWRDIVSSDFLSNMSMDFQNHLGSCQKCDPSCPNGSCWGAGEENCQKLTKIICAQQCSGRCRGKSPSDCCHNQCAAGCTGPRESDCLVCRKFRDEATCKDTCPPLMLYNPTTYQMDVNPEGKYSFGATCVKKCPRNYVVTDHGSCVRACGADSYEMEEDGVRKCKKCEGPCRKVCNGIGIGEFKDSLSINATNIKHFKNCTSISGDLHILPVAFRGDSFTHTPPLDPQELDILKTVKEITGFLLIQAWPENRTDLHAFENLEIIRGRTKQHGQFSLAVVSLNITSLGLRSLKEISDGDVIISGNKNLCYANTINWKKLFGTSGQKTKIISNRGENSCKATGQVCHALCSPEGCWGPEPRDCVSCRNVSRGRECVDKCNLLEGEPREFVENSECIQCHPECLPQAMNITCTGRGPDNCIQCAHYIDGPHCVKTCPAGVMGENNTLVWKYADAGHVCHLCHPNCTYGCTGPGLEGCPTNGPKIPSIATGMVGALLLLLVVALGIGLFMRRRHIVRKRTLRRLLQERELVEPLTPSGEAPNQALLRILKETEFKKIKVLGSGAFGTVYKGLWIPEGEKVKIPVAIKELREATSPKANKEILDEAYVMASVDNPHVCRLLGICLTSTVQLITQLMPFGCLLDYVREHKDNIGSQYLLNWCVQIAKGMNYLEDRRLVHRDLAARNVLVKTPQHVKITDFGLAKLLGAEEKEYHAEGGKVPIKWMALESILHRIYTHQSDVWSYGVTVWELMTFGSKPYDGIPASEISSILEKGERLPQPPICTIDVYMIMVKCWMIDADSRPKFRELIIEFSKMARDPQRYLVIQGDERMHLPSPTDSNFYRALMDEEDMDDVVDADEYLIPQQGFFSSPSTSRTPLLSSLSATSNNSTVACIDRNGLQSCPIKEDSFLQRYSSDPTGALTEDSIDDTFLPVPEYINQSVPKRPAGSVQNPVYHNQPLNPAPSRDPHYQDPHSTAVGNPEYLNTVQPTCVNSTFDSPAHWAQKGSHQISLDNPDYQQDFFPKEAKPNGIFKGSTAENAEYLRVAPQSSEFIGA
Test: DRUGMATRIX: Protein Tyrosine Kinase, EGF Receptor enzyme inhibition (substrate: Poly(Glu:Tyr))
Assay type: cell-based, Insect cells
Details: Not Active = under 50% inhibition at 10 µM; read-out: IC50
Listed here: items and their measured log10 IC50.
Base-10 log of IC50, unit µM.

"CC/C(=C(\c1ccccc1)c1ccc(OCCN(C)C)cc1)c1ccccc1" yielded log10 IC50 of 0.55

----------
Target: 5-hydroxytryptamine receptor 1B (Rattus norvegicus, UniProt P28564); also: in other assays of this panel Not Active means under 50% inhibition at 10 µM
Sequence (P28564 whole entry): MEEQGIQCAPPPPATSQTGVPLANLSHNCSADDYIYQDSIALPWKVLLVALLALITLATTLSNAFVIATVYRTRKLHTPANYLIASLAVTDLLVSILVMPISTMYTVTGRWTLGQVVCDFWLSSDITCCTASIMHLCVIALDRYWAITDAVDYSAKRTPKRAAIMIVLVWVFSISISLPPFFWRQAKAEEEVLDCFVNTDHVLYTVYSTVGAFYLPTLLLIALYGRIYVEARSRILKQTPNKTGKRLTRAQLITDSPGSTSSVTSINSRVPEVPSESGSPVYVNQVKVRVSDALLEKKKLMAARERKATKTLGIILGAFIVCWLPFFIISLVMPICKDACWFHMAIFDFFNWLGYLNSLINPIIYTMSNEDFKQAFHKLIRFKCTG
Type: cell membranes, Wistar, Cerebral cortex, Membrane
MEASURED ATTRIBUTE: IC50

CC1(C)S[C@@H]2[C@H](NC(=O)Cc3ccccc3)C(=O)N2[C@H]1C(=O)O
Not Active
CC(C)(C)NCC(O)c1cc(Cl)c(N)c(Cl)c1 (stereo not drawn)
Not Active
Cc1ccccc1N1C(=O)c2cc(S(N)(=O)=O)c(Cl)cc2NC1C (stereo not drawn)
Not Active
CCn1cc(C(=O)O)c(=O)c2cc(F)c(N3CCNCC3)cc21
Not Active
CN(C)C(=O)Oc1cc(OC(=O)N(C)C)cc(C(O)CNC(C)(C)C)c1 (stereo not drawn)
Not Active

Reported IC50 (5-hydroxytryptamine receptor 1B (Rattus norvegicus, UniProt P28564)) for entry "COc1nc(C)nc(Cl)c1NC1=NCCN1" is Not Active

Let me check: "OCCN(CCO)c1nc(N2CCCCC2)c2nc(N(CCO)CCO)nc(N3CCCCC3)c2n1" , system 5-hydroxytryptamine receptor 1B (Rattus norvegicus, UniProt P28564), measured IC50 is Not Active

# lookup: "c1ccc(Nc2ccc(Nc3ccccc3)cc2)cc1" on 5-hydroxytryptamine receptor 1B (Rattus norvegicus, UniProt P28564), IC50 = Not Active

Test item "CN(C)CCCN1c2ccccc2Sc2ccccc21" ; 5-hydroxytryptamine receptor 1B (Rattus norvegicus, UniProt P28564); reported IC50 was Not Active
